- targetOfAssay: T1, human MSLN full-length protein (NCBI: AAH09272.1) expressed on HEK293T-hMSLN-B8 cells (human, UniProt Q13421 296-598)
- T1 construct: Whole encoded precursor
- T1 sequence (Q13421 other isoform, or with tags, fused parts or gaps limits assumed): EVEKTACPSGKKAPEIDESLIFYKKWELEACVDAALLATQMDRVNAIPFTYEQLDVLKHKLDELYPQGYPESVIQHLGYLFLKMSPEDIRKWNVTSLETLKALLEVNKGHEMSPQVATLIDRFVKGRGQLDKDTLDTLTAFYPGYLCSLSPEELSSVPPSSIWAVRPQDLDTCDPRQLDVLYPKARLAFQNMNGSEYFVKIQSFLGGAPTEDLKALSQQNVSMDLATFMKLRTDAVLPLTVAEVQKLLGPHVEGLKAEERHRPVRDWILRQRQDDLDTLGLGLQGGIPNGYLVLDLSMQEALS
- testName: FACS on HEK293T-hMSLN-B8 cells
Please go through the items and note down their Maximum mean fluorescence intensity.
Give bare numbers.

# binder, Maximum mean fluorescence intensity
records = [
    ("S009-F6-62.5 (antibody, human IgG1, kappa, V domains shown, human-murine chimeric antibody, human IgG1/kappa constant regions) VH: QVQLQQPGTELVKPGASVKLSCRASGYTFTAYWMHWVKQRPGQGLEWIGNINPSNGGTDFNEKFKSKATLTVDKSSSTAYMQLSSLTSEDSAVYYCARGRGYFDVWGTGTTVTVSS VL: DILLTQSPAILSVSPGERVSFSCRASKNIGTSIHWYQQRTNGSPRLLIKYASESISGIPSRFSGSGSGTDFTLNINSVESEDIADYYCQQSNSWPTLTFGAGTKLELKR", 202000),
    ("S009-F5-9.16 (antibody, human IgG1, kappa, V domains shown, human-murine chimeric antibody, human IgG1/kappa constant regions) VH: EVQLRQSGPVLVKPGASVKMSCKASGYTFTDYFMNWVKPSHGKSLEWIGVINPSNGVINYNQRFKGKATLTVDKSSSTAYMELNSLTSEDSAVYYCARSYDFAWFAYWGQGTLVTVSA VL: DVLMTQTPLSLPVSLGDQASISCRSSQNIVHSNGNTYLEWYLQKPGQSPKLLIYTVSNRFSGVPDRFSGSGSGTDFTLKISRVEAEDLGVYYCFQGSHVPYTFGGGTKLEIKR", 240000),
]

# input for lookup
The recorded Maximum mean fluorescence intensity for S009-F4-127.10 (antibody, human IgG1, kappa, V domains shown, human-murine chimeric antibody, human IgG1/kappa constant regions) VH: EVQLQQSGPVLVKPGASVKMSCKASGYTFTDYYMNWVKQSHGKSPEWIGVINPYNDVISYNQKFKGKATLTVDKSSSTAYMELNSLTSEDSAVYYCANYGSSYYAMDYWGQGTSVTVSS VL: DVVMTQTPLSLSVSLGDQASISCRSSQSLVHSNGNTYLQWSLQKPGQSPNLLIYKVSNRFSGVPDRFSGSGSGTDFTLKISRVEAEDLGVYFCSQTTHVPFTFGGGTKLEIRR is 102000
